From: patent US4895842A

What IC50 was measured for each of the following?
# target-or-test-system: human plasmin (Homo sapiens)
# assay-info: Antiplasmin activity: inhibition of fibrin decomposition
# Format: biochemical
# reported-conditions: Table 2; concentration at which fibrin dissolution time is extended twice, pH 7.4, 37° C.; read-out: Plasmin Fibrin (I50)
Give bare numbers, in nM.

1) CC(=O)c1ccc(NC(=O)[C@H](Cc2ccc(OCc3ccc(Cl)c(Cl)c3)cc2)NC(=O)[C@H]2CC[C@H](CN)CC2)cc1 [compound 45]    91
2) NC[C@H]1CC[C@H](C(=O)N[C@@H](Cc2ccc(OCc3ccccc3)cc2)C(=O)Nc2cccc(Cl)c2)CC1 [compound 36]    410

What value of IC50 has been recorded for this entry: CC(=O)c1ccc(NC(=O)[C@H](Cc2ccc(OCc3cccc(C(F)(F)F)c3)cc2)NC(=O)[C@H]2CC[C@H](CN)CC2)cc1 [compound 55] 290

====

# target-or-test-system: human plasma kallikrein (Homo sapiens)
# assay-info: Anti-plasma kallikrein activity: inhibition of S-2302 decomposition
# Assay type: biochemical
# reported-conditions: Table 2; S-2302 substrate, pH 7.8, 37° C.; read-out: Plasma Kallikrein S-2302 (I50)
pIC50: −log10 of the molar value. Counter-ions that a name gives are not always drawn.
Threshold rule: pIC50 greater than or equal to 6 is 1.0; below that, 0.0.

Solved entries:
1) CC(=O)c1ccc(NC(=O)[C@H](Cc2ccc(OCc3ccc(Cl)cc3)cc2)NC(=O)[C@H]2CC[C@H](CN)CC2)cc1    1.0
2) Cc1ccc(NC(=O)[C@H](Cc2ccc(OCc3ccccc3)cc2)NC(=O)[C@H]2CC[C@H](CN)CC2)cc1C    0.0
3) NC[C@H]1CC[C@H](C(=O)N[C@@H](Cc2ccc(OCc3ccccc3)cc2)C(=O)NC2CC3CCC2C3)CC1 (stereo partly shown)    0.0

Is pIC50 for NCc1ccc(C(=O)N[C@@H](Cc2ccc(OCc3ccccc3)cc2)C(=O)NC2CCCCC2)cc1 [Compound No. 114, hydrochloride] at or above 6? 0.0

Is pIC50 for NCC1CCC(C(=O)NC(Cc2ccc(OCc3ccccc3)cc2)C(=O)NCc2ccc(F)cc2)CC1 (stereo not shown) at or above 6? 0.0

Is pIC50 for CC(=O)c1ccc(NC(=O)[C@H](Cc2ccc(OCc3ccccc3)cc2)NC(=O)[C@H]2CC[C@H](CN)CC2)cc1 at or above 6? 1.0

Is pIC50 for NCc1ccc(C(=O)N[C@@H](Cc2ccc(OCc3ccccc3)cc2)C(=O)NCCc2ccccc2)cc1 at or above 6? 0.0

Is pIC50 for COc1ccc(C[C@H](NC(=O)[C@H]2CC[C@H](CN)CC2)C(=O)Nc2ccc(C(C)=O)cc2)cc1 at or above 6? 0.0

Is pIC50 for CC(=O)c1ccc(NC(=O)[C@H](Cc2ccc(OCc3c(Cl)cccc3Cl)cc2)NC(=O)[C@H]2CC[C@H](CN)CC2)cc1 at or above 6? 1.0

Is pIC50 for CC(=O)c1ccc(NC(=O)[C@H](Cc2ccc(OCc3ccccc3Cl)cc2)NC(=O)[C@H]2CC[C@H](CN)CC2)cc1 at or above 6? 1.0

====

# target-or-test-system: human plasma kallikrein (Homo sapiens, UniProt P03952)
# Sequence (P03952 391-638 limits assumed): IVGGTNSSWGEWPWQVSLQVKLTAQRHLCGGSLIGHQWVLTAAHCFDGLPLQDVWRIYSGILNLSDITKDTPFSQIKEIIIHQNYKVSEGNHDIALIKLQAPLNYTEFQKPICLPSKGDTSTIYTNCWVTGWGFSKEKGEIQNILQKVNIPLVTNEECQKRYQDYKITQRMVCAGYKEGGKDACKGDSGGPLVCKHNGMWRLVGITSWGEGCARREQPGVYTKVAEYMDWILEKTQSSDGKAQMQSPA
# Sequence (P03952 20-390 partner limits assumed): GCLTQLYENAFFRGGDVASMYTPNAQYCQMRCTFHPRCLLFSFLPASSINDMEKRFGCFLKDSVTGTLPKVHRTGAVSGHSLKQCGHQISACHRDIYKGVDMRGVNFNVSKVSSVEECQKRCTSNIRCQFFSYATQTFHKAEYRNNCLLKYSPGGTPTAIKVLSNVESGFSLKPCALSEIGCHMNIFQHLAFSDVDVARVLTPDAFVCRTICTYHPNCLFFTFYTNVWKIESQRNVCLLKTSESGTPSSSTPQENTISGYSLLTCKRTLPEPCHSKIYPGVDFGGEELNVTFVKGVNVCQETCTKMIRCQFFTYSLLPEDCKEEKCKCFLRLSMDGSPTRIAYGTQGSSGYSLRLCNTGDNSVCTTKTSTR
# assay-info: Anti-plasma kallikrein activity: inhibition of S-2302 decomposition
# Assay type: biochemical
# reported-conditions: Table 2; S-2302 substrate, pH 7.8, 37° C.; read-out: Plasma Kallikrein S-2302 (I50)
What pIC50 was measured for each of the following?
Give bare numbers, as −log10 of the molar value.

Examples with their reported pIC50 follow.
1) CCOC(=O)C1CCCC(NC(=O)[C@H](Cc2ccc(OCc3ccc(F)cc3)cc2)NC(=O)c2ccc(CN)cc2)C1 (stereo partly drawn)    4.40
2) CC(=O)c1ccc(NC(=O)[C@H](Cc2ccc(OCc3ccc(Cl)c(Cl)c3)cc2)NC(=O)[C@H]2CC[C@H](CN)CC2)cc1    6.34

With those in mind, consider the next compound.
What value of pIC50 has been recorded for this entry: CCOC(=O)C1CCCC(NC(=O)[C@H](Cc2ccc(OCc3cccc(Cl)c3)cc2)NC(=O)[C@H]2CC[C@H](CN)CC2)C1 (stereo partly drawn) 5.21

====

# target-or-test-system: human plasmin (Homo sapiens, UniProt P00747)
# Sequence (P00747 581-810 limits assumed): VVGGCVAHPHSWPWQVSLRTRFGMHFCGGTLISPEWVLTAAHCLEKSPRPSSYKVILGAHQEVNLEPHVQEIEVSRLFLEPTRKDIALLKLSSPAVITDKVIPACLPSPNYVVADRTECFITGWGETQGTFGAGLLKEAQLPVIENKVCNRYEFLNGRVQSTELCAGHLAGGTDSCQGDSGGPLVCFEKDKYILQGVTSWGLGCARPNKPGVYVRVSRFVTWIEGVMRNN
# Sequence (P00747 97-580 partner limits assumed): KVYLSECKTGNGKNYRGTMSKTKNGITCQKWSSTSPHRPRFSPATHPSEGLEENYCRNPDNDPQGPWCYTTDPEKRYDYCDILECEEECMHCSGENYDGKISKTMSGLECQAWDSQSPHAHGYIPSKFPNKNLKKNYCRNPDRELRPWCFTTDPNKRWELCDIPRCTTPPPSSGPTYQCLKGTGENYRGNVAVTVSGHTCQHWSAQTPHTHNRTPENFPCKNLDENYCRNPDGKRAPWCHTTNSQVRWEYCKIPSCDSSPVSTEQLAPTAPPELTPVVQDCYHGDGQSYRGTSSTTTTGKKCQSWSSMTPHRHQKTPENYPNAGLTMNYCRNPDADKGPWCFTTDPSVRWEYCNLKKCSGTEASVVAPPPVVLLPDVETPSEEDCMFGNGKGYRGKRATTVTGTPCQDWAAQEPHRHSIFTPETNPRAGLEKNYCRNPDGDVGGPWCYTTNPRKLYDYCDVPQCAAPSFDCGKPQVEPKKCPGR
# assay-info: Antiplasmin activity: inhibition of fibrin decomposition
# Assay type: biochemical
# reported-conditions: Table 2; concentration at which fibrin dissolution time is extended twice, pH 7.4, 37° C.; read-out: Plasmin Fibrin (I50)
Structures can show the parent of a compound that is named as a salt.
Response field label: string, one of Fulfilled (IC50 strictly below 300 nM) or Not fulfilled.

1. NC[C@H]1CC[C@H](C(=O)N[C@@H](Cc2ccc(OCc3ccccc3)cc2)C(=O)Nc2ccc(S(N)(=O)=O)cc2)CC1 [Compound No. 47, hydrochloride]    Not fulfilled
2. CC(=O)c1ccc(NC(=O)C(Cc2ccc(OCc3ccccc3)cc2)NC(=O)c2ccc(CN)cc2)cc1 (stereo not shown) [compound 118]    Not fulfilled
3. CSc1ccc(NC(=O)[C@H](Cc2ccc(OCc3ccccc3)cc2)NC(=O)[C@H]2CC[C@H](CN)CC2)cc1 [compound 29]    Not fulfilled
4. CC1CCC(NC(=O)C(Cc2ccc(OCc3cccc(Cl)c3)cc2)NC(=O)c2ccc(CN)cc2)CC1C (stereo not shown) [compound 103]    Fulfilled
5. NC[C@H]1CC[C@H](C(=O)N[C@@H](Cc2ccc(OCc3ccccc3)cc2)C(=O)Nc2ccc(C(=O)c3ccccc3)cc2)CC1 [compound 19]    Fulfilled

Say whether its IC50 is strictly beneath 300 nM. Entry: NC[C@H]1CC[C@H](C(=O)NC(Cc2ccc(N)cc2)C(=O)Nc2ccc(C(=O)c3ccccc3)cc2)CC1 (stereo partly shown) [compound 33] Not fulfilled

Say whether its IC50 is strictly beneath 300 nM. Entry: Cc1ccc(NC(=O)[C@H](Cc2ccc(OCc3ccccc3)cc2)NC(=O)c2ccc(CN)cc2)cc1 [compound 63] Not fulfilled

Say whether its IC50 is strictly beneath 300 nM. Entry: CCOC(=O)c1cccc(NC(=O)[C@H](Cc2ccc(OCc3ccccc3)cc2)NC(=O)[C@H]2CC[C@H](CN)CC2)c1 [compound 75] Not fulfilled

====

# target-or-test-system: human plasmin (Homo sapiens)
# assay-info: Antiplasmin activity: inhibition of fibrin decomposition
# Format: biochemical
# reported-conditions: Table 4, comparative compounds of Table 3; fibrin dissolution time extended twice; read-out: Plasmin Fibrin (I50)
pIC50: −log10 of the molar value.
What pIC50 was measured for each of the following?

Examples with their reported pIC50 follow.
1) CC(=O)NC(Cc1ccc([N+](=O)[O-])cc1)C(=O)Nc1ccc([N+](=O)[O-])cc1 (stereo not drawn) [Table 3 Compound No. 4, reference compound]    < 4.00
2) NCc1ccc(C(=O)NC(Cc2ccccc2)C(=O)N2CCCCC2)cc1 (stereo not drawn) [Table 3 Compound No. 3, reference compound]    < 3.00

With those in mind, consider the next compound.
What value of pIC50 has been recorded for this entry: CC(=O)NC(Cc1ccc(OCc2ccccc2)cc1)C(=O)N(C)C (stereo not drawn) [Table 3 Compound No. 5, reference compound] < 3.70

====

# target-or-test-system: human plasmin (Homo sapiens)
# assay-info: biochemical
# reported-conditions: read-out: Plasmin S-2251 (I50)
# Procedure: An inhibitor sample is dissolved in a 0.05M Tris-hydrochloric acid buffer solution (pH=7.4) to make the total volume of 400 μl. […] Then, 50 μl of a 0.2 casein unit/ml human plasmin is added and the mixture is incubated at a temperature of 37° C. for 4 minutes. […] Thus, the concentration I50 (μmol) of the inhibitor sample, at which the absorbance is one half (i.e., 1/2) of that obtained in the absence of the inhibitor, is determined.
Where a name gives a salt, the structure may show the parent alone.
What pIC50 was measured for each of the following?
One number for each entry, as −log10 of the molar value.

Examples with their reported pIC50 follow.
1) CC(=O)c1ccc(NC(=O)[C@H](Cc2ccc([N+](=O)[O-])cc2)NC(=O)[C@H]2CC[C@H](CN)CC2)cc1 [compound 130, hydrochloride]    4.82
2) CC(=O)c1ccc(NC(=O)[C@H](Cc2ccc(OCc3ccc(Cl)c(Cl)c3)cc2)NC(=O)[C@H]2CC[C@H](CN)CC2)cc1    6.24
3) CC(=O)c1ccc(NC(=O)[C@H](Cc2ccc(OCc3c(Cl)cccc3Cl)cc2)NC(=O)[C@H]2CC[C@H](CN)CC2)cc1    5.85

Batch request: pIC50 per item, same order as input.
1. CC1CCC(NC(=O)[C@H](Cc2ccc(OCc3ccccc3)cc2)NC(=O)c2ccc(CN)cc2)CC1C (stereo partly drawn) [Compound No. 80, hydrochloride]
2. COc1ccc(C[C@H](NC(=O)[C@H]2CC[C@H](CN)CC2)C(=O)Nc2ccc(C(C)=O)cc2)cc1
3. CC(=O)c1ccc(NC(=O)[C@H](Cc2ccc(OC(=O)OCc3ccccc3Cl)cc2)NC(=O)[C@H]2CC[C@H](CN)CC2)cc1

1: 5.96; 2: 5.89; 3: 6.25
